Source: paper PMC6400186

Target: T1, mouse ovastacin (mouse, UniProt Q6HA09 85-435)
T1 sequence (looked up): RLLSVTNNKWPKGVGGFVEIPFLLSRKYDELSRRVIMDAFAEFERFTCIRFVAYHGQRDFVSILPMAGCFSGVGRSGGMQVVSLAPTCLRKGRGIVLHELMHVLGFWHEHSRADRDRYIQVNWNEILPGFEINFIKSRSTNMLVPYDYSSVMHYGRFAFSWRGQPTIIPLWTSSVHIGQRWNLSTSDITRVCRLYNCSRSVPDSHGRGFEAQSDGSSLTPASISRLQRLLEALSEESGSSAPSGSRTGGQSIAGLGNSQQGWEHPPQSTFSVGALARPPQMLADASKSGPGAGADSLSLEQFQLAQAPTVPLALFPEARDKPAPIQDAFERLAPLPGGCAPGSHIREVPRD
Assay: enzyme inhibition assay (fluorogenic substrate), Ki by Morrison's equation; fetuin-B variant titrated against enzyme; 37°C, 150 mM sodium chloride, 50 mM Tris-HCl pH 7.4, 0.01% Brij 35, triplicate; enzyme and substrate 1.0 nM and 195 µM for astacin, 0.5 nM and 26 µM for meprin β, 0.7 nM and 26 µM for ovastacin
Conditions: both partners purified
property label: loss of inhibitory potency (change of Ki) against wild-type mouse fetuin-B

binder	measured value
mouse fetuin-B D156A (natural protein, UniProt Q9QXC1 19-388, looked up, also called mFB_(D156A); source: ExpiCHO-S cells, purified (Ni-NTA)) RSPPAPPLPQRPLSPLHPLGCNDSEVLAVAGFALQNINRDQKDGYMLSLNRVHDVREHYQEDMGSLFYLTLDVLETDCHVLSRKAQKDCKPRMFYESVYGQCKAMFHINKPRRVLYLPAYNCTLRPVSKRKTHTTCPACPSPIDLSNPSALEAATESLAKFNSKSPSKKYELVKVTKAMNQWVSGPAYYVEYLIKEAPCTKSQASCSLQHSDSEPVGICQGSTVQSSLRHVPLIQPVEKSVTVTCEFFESQAQVPGDENPAVTQGPQKLPQKNTAPTSSPSVTAPRGSIQHLPELDDEKPEESKGGSPEEAFPVQLDLTTNPQGDTLDVSFLYLEPGDKKLVVLPFPGKEQRSAECPGPEKENNPLVLPP	~4 orders of magnitude
mouse fetuin-B P155A (natural protein, UniProt Q9QXC1 19-388, looked up, also called mFB_(P155A); source: ExpiCHO-S cells, purified (Ni-NTA)) RSPPAPPLPQRPLSPLHPLGCNDSEVLAVAGFALQNINRDQKDGYMLSLNRVHDVREHYQEDMGSLFYLTLDVLETDCHVLSRKAQKDCKPRMFYESVYGQCKAMFHINKPRRVLYLPAYNCTLRPVSKRKTHTTCADCPSPIDLSNPSALEAATESLAKFNSKSPSKKYELVKVTKAMNQWVSGPAYYVEYLIKEAPCTKSQASCSLQHSDSEPVGICQGSTVQSSLRHVPLIQPVEKSVTVTCEFFESQAQVPGDENPAVTQGPQKLPQKNTAPTSSPSVTAPRGSIQHLPELDDEKPEESKGGSPEEAFPVQLDLTTNPQGDTLDVSFLYLEPGDKKLVVLPFPGKEQRSAECPGPEKENNPLVLPP	~2 orders of magnitude
chimeric mutant mFBABA (other, mouse, UniProt P29699 19-136, looked up, mouse fetuin-A CY1 domain, UniProt P29699, residues A19-P136; mouse fetuin-B CY2 domain with linker, UniProt Q9QXC1, residues V145-Q269; mouse fetuin-A CTR domain, UniProt P29699, residues P254-I345; also called chimera of mouse fetuin-B with CY1 and CTR from mouse fetuin-A; source: adenovirus-infected COS-7 cells, purified (Ni-NTA)) APQGTGLGFRELACDDPEAEQVALLAVDYLNNHLLQGFKQVLNQIDKVKVWSRRPFGVVYEMEVDTLETTCHALDPTPLANCSVRQLTEHAVEGDCDFHILKQDGQFRVMHTQCHSTPVSKRKTHTTCPDCPSPIDLSNPSALEAATESLAKFNSKSPSKKYELVKVTKAMNQWVSGPAYYVEYLIKEAPCTKSQASCSLQHSDSEPVGICQGSTVQSSLRHVPLIQPVEKSVTVTCEFFESQPQPANANAVGPVPTANAALPADPPASVVVGPVVVPRGLSDHRTYHDLRHAFSPVASVESASGETLHSPKVGQPGAAGPVSPMCPGRIRHFKI	> 4 orders of magnitude
